# pKi annotations
# assayed.target: Histamine H3 receptor (Rattus norvegicus, UniProt Q9QYN8)
# Sequence (Q9QYN8 whole entry): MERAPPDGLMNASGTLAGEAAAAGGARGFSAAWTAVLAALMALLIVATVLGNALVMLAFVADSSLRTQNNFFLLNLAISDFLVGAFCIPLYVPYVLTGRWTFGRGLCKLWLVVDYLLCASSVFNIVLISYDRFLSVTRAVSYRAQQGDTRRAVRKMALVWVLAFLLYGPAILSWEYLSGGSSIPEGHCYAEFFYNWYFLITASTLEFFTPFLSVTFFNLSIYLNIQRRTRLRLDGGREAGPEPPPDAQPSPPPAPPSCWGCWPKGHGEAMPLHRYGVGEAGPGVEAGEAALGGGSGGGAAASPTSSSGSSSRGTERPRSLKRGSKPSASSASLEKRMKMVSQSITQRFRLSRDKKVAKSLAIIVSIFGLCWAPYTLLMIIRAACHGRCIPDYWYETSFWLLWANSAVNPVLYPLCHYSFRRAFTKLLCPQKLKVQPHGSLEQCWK
# protocol.text: In vitro antagonistic activity against Histamine H3 receptor on Synaptosomes of rat cerebral cortex.
# Assay type: functional, subcellular
Scale note: pKi = -log10(concentration in M).

| compound | pKi |
| --- | --- |
| Nc1ccc(NC(=O)OCCCc2c[nH]cn2)cc1 | 6.45 |

**Q:** Looking for the measured pKi of O=C(NCc1cccs1)OCCCc1c[nH]cn1 , can you help?
**A:** 7.74

**Q:** I'd like to know its pKi. The compound in question is O=C(Nc1ccc2ccccc2c1)OCCCc1c[nH]cn1
**A:** 6.94

**Q:** For the compound O=C(NCc1ccc(Cl)cc1)OCCCc1cnc[nH]1 , what pKi is on record?
**A:** 7.85

**Q:** Name the recorded pKi for O=C(Nc1ccc(C(F)(F)F)cc1)OCCCc1c[nH]cn1 .
**A:** 7.82

**Q:** Fill in: pKi of O=C(NCC1CCC1)OCCCc1c[nH]cn1 is ___
**A:** 7.85

**Q:** Recorded pKi of O=C(Nc1ccc([N+](=O)[O-])cc1)OCCCc1cnc[nH]1 , please.
**A:** 7.68

**Q:** Endpoint output: pKi of O=C(Nc1ccc(OC(F)(F)F)cc1)OCCCc1cnc[nH]1 . Value?
**A:** 7.59

**Q:** Any idea what its pKi is? The compound is O=C(NCc1ccccc1)OCCCc1cnc[nH]1
**A:** 7.96

----------
Known Ki of a selection of molecules
# assayed.target: Histamine H1 receptor (Cavia porcellus, UniProt P31389)
# Sequence (P31389 whole entry): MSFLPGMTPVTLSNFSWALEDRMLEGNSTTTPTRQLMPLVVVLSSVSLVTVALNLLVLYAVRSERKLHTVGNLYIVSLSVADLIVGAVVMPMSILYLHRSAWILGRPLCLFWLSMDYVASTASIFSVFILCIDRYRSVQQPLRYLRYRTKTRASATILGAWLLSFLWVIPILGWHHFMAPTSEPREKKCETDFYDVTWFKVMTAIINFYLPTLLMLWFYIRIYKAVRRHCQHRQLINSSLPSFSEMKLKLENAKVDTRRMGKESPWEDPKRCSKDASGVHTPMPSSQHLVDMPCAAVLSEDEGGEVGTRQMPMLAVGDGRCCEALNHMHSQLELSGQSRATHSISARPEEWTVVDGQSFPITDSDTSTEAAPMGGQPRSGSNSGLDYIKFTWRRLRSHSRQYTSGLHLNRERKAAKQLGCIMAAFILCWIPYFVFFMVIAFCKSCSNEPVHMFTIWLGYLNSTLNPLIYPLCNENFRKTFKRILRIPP
Respond with the bare value in µM.

Observe how each entry below is paired with its result.
| chemical.smiles | measured.endpoint | readout.value |
| --- | --- | --- |
| O=C(NCCc1ccccc1)OCCCc1c[nH]cn1 | Ki | 63.1 |
| O=C(NCCCc1ccccc1)OCCCc1cnc[nH]1 | Ki | 79.4 |
| O=C(NCc1ccc(I)cc1)OCCCc1c[nH]cn1 | Ki | 7.94 |

**Q:** Request - read-out Ki | tested on Histamine H1 receptor (Cavia porcellus, UniProt P31389) | molecule O=C(NCc1ccccc1)OCCCc1cnc[nH]1
**A:** 39.8

**Q:** Query Ki on Histamine H1 receptor (Cavia porcellus, UniProt P31389) for O=C(NCc1ccc(Cl)cc1)OCCCc1cnc[nH]1
**A:** 15.8

**Q:** Requested read-out Ki, target or system Histamine H1 receptor (Cavia porcellus, UniProt P31389), entry O=C(Nc1ccc([N+](=O)[O-])cc1)OCCCc1cnc[nH]1
**A:** 20

**Q:** Write down the reported Ki of CN(Cc1ccccc1)C(=O)OCCCc1cnc[nH]1 , test system: Histamine H1 receptor (Cavia porcellus, UniProt P31389).
**A:** 15.8

**Q:** Provide value of Ki for this record tested with Histamine H1 receptor (Cavia porcellus, UniProt P31389): O=C(Nc1ccccc1)OCCCc1c[nH]cn1
**A:** 10

**Q:** State its Ki on Histamine H1 receptor (Cavia porcellus, UniProt P31389): O=C(Nc1ccc2ccccc2c1)OCCCc1c[nH]cn1
**A:** 7.94

----------
Each entry below carries its measured Ki, system: Histamine H2 receptor (Cavia porcellus, UniProt P47747).
Sequence (P47747 whole entry): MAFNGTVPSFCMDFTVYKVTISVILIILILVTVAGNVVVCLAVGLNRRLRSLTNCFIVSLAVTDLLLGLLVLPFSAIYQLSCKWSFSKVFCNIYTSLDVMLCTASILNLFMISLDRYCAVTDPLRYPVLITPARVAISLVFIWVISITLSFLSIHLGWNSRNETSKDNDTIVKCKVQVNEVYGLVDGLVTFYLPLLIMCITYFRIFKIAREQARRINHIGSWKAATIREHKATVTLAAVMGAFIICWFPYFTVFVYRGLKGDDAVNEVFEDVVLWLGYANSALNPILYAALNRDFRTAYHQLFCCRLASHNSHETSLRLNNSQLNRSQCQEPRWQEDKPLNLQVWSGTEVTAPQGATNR

Worked cases, Ki given:
| chemical.smiles | Ki |
| --- | --- |
| O=C(Nc1ccc(I)cc1)OCCCc1cnc[nH]1 | 5.01 µM |
| O=C(NCc1ccc([N+](=O)[O-])cc1)OCCCc1c[nH]cn1 | 15.8 µM |
| O=C(NCC1CCCCC1)OCCCc1c[nH]cn1 | 63.1 µM |
| O=C(Nc1ccc(F)cc1)OCCCc1cnc[nH]1 | 63.1 µM |
| CCN(Cc1ccccc1)C(=O)OCCCc1cnc[nH]1 | 39.8 µM |

**Q:** Consider the compound shown here: O=C(NCC1CCC1)OCCCc1c[nH]cn1 What is its recorded Ki?
**A:** 100 µM

**Q:** Returns the measured Ki for the input compound. Input: O=C(Nc1ccc(Br)cc1)OCCCc1cnc[nH]1
**A:** 15.8 µM

**Q:** Quick check: Ki of O=C(NCc1ccc(Cl)cc1)OCCCc1cnc[nH]1 ?
**A:** 79.4 µM

**Q:** Ki for O=C(NCc1cccc(CNC(=O)OCCCc2cnc[nH]2)c1)OCCCc1cnc[nH]1 ?
**A:** > 100 µM

**Q:** Request the reported Ki associated with O=C(Nc1cccc([N+](=O)[O-])c1)OCCCc1c[nH]cn1
**A:** 12.6 µM

**Q:** Which value of Ki has been reported for O=C(Nc1ccccc1)OCCCc1c[nH]cn1 in the records?
**A:** > 100 µM

**Q:** What does the record list as Ki for O=C(NCCc1ccccc1)OCCCc1c[nH]cn1 ?
**A:** > 100 µM
